Measured values drawn from patent US20250179049A1 for this set.

# TEST_PROTOCOL: Kinetic solubility in biorelevant media
# Type: physicochemical
# APPLIED_CONDITIONS: fasted-state simulated gastric fluid (FaSSGF), fassgf or other biorelevant, thermodynamic from solid; FaSSGF pH 1.6, room temperature, t = 4 hours
Where a name gives a salt, the structure may show the parent alone.
REPORTED_ENDPOINT: solubility at 4 h

[ask] Query (molecule): CC(C)(OCc1cc(-c2cccc(OC3CCC3)c2)n(-c2ccccc2N2CCC2)n1)C(=O)O [tris salt Form B] ; field requested: solubility at 4 h
[reply] 0.35 µg/mL

* * *

# TEST_PROTOCOL: Rat pharmacokinetics, oral gavage
# Type: in vivo, Sprague-Dawley rats
# APPLIED_CONDITIONS: female, Sprague-Dawley, rat, plasma, po, 60 mg/kg, rat, Female, PO/60 mg/kg, Mean ± SD; read-out: AUC0-24
REPORTED_ENDPOINT: AUC(0-t) (µg·h/mL)
State the answer as a number, implicitly in µg·h/mL.

[ask] Query (compound): CC(C)(OCc1cc(-c2cccc(OC3CCC3)c2)n(-c2ccccc2N2CCC2)n1)C(=O)O ; field requested: AUC(0-t)
[reply] 1430

* * *

# TEST_PROTOCOL: Rat pharmacokinetics, oral gavage
# Format: in vivo, Sprague-Dawley rats
# APPLIED_CONDITIONS: male, Sprague-Dawley, rat, plasma, po, 25 mg/kg, rat, Male, PO/25 mg/kg, Mean ± SD; read-out: AUC0-24
Where a name gives a salt, the structure may show the parent alone.
REPORTED_ENDPOINT: AUC(0-t) (µg·h/mL)
State the answer as a number, implicitly in µg·h/mL.

[ask] Query (compound): CC(C)(OCc1cc(-c2cccc(OC3CCC3)c2)n(-c2ccccc2N2CCC2)n1)C(=O)O [Compound 1 tris salt] ; field requested: AUC(0-t)
[reply] 352

* * *

# TEST_PROTOCOL: Dog pharmacokinetics, oral gavage suspension
# Type: in vivo, beagle dogs
# APPLIED_CONDITIONS: dog, plasma; male beagle dogs, oral suspension, 30 mg/kg, mean
Structures can show the parent of a compound that is named as a salt.
REPORTED_ENDPOINT: half-life (min)
State the answer as a number, implicitly in min.

[ask] Query (molecule): CC(C)(OCc1cc(-c2cccc(OC3CCC3)c2)n(-c2ccccc2N2CCC2)n1)C(=O)O [Compound 1 tris salt] ; field requested: half-life
[reply] 221

* * *

# TEST_PROTOCOL: Rat pharmacokinetics, oral gavage
# Assay type: in vivo, Sprague-Dawley rats
# APPLIED_CONDITIONS: Sprague-Dawley, plasma; rat PO 25 mg/kg, female, mean; read-out: MRTInf—obs
Counter-ions that a name gives are not always drawn.
REPORTED_ENDPOINT: MRT inf (h)
State the answer as a number, implicitly in h.

[ask] Query (compound): CC(C)(OCc1cc(-c2cccc(OC3CCC3)c2)n(-c2ccccc2N2CCC2)n1)C(=O)O [Compound 1 tris salt] ; field requested: MRT inf
[reply] 9.9

* * *

# TEST_PROTOCOL: Rat pharmacokinetics, oral gavage
# Format: in vivo, Sprague-Dawley rats
# APPLIED_CONDITIONS: female, Sprague-Dawley, rat, plasma, po, 25 mg/kg, rat PO 25 mg/kg, female, mean; read-out: Cmax
Counter-ions that a name gives are not always drawn.
REPORTED_ENDPOINT: Cmax (µg/mL)
State the answer as a number, implicitly in µg/mL.

[ask] Query (compound): CC(C)(OCc1cc(-c2cccc(OC3CCC3)c2)n(-c2ccccc2N2CCC2)n1)C(=O)O [Compound 1 tris salt] ; field requested: Cmax
[reply] 68.6
